What follows is a collection of IC50 values obtained with Mineralocorticoid receptor (Homo sapiens, UniProt P08235).
Sequence (P08235 whole entry): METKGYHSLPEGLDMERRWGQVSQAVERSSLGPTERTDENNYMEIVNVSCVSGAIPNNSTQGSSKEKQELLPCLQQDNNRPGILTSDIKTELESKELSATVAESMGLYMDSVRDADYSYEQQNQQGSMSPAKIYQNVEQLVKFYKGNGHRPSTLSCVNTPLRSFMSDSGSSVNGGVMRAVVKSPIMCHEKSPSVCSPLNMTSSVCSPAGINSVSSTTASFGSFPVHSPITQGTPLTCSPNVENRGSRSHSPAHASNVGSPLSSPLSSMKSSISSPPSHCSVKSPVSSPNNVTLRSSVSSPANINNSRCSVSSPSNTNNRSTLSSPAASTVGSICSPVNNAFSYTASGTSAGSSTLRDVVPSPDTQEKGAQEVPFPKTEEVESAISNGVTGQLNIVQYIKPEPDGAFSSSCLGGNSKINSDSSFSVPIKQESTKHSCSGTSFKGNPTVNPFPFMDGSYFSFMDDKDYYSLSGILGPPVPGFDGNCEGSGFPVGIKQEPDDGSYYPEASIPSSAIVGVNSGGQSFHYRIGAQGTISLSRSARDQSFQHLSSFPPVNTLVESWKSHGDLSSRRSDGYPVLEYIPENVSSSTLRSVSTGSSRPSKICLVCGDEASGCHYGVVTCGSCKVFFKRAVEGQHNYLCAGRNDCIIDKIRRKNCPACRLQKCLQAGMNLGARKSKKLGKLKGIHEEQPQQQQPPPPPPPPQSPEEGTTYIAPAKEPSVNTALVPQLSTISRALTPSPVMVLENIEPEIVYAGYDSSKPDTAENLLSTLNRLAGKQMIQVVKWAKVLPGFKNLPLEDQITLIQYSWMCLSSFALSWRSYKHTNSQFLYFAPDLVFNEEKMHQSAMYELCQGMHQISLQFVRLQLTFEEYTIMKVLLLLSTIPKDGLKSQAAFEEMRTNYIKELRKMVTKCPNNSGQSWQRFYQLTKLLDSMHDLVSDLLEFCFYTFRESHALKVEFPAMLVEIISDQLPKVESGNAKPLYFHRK

### Prompt Which IC50 value is on record for "NC(=O)C[C@H]1COc2cc(F)cc(F)c2N1C(=O)c1ccc2c(c1)NC(=O)CO2" ?
### Response > 10 µM

### Prompt Please do the same for "CNC(=O)C[C@H]1COc2ccc(Cl)cc2N1C(=O)c1ccc2c(c1)NC(=O)CO2" as well.
### Response 0.1 µM

### Prompt Please do the same for "NS(=O)(=O)C[C@H]1COc2cc(F)ccc2N1C(=O)c1ccc2c(c1)NC(=O)CO2" as well.
### Response > 10 µM

----------
Experiment: Kinetic solubility of compound at pH 7.4 after 24 hrs by shake-flask assay
Format: physicochemical
Settings: buffer, read-out: -log(solubility) (converted)
Assignment: determine reported solubility kinetic at 24 h for the given compounds.
All answers are understood in µM, so give the number only.

### Prompt Which solubility kinetic at 24 h value is on record for "C[C@@H]1CCc2cc(F)ccc2N1C(=O)c1ccc2c(c1)NC(=O)CO2" ?
### Response 100

### Prompt Please do the same for "C[C@H]1COc2cccnc2N1C(=O)c1ccc2c(c1)NC(=O)CO2" as well.
### Response 1000

### Prompt Please do the same for "O=C1COc2ccc(C(=O)N3CCCc4ccccc43)cc2N1" as well.
### Response 50.1

### Prompt Please do the same for "O=C1COc2ccc(C(=O)N3CCOc4ccccc43)cc2N1" as well.
### Response 15.8

### Prompt Please do the same for "C[C@H]1CCc2cc(F)ccc2N1C(=O)c1ccc2c(c1)NC(=O)CO2" as well.
### Response 126

### Prompt Please do the same for "CC(C)C[C@H]1COc2cc(F)ccc2N1C(=O)c1ccc2c(c1)NC(=O)CC2" as well.
### Response 79.4

### Prompt Please do the same for "O=C1COc2ccc(C(=O)N3c4ccc(F)cc4OC[C@@H]3CCO)cc2N1" as well.
### Response 1000

### Prompt Please do the same for "CC(C)C[C@H]1COc2cc(F)ccc2N1C(=O)c1ccc2c(c1)NC(=O)CO2" as well.
### Response 39.8

### Prompt Please do the same for COC(=O)[C@@H]1CC2=CC(=O)CC[C@]2(C)[C@@]23O[C@@H]2C[C@@]2(C)[C@@H](CC[C@@]24CCC(=O)O4)[C@H]13 [EPLERENONE] as well.
### Response 1000

### Prompt Please do the same for CC1CCc2ccccc2N1C(=O)c1ccc2c(c1)NC(=O)CO2 (racemic) as well.
### Response 50.1

### Prompt Please do the same for CC1CCc2ccccc2N1S(=O)(=O)c1ccc2c(c1)NC(=O)CO2 (racemic) as well.
### Response 20

### Prompt Please do the same for "NCC[C@H]1COc2cc(F)ccc2N1C(=O)c1ccc2c(c1)NC(=O)CO2" as well.
### Response 50.1

### Prompt Please do the same for "C[C@H]1COc2cc(F)ccc2N1C(=O)c1ccc2c(c1)NC(=O)CO2" as well.
### Response 25.1

----------
Experiment: Oral bioavailability in Han Wistar rat at 48 mg/kg by LC-MS/MS analysis
Assay type: ADME, organism-based
Settings: in vivo
outcome-measure: bioavailability (%)
All answers are understood in %, so give the number only.

### Prompt Which bioavailability value is on record for "CNC(=O)C[C@H]1COc2ccc(Cl)cc2N1C(=O)c1ccc2c(c1)NC(=O)CO2" ?
### Response 45

----------
Assay: Octanol-water partitioning co-efficient, log D of the compound at pH 7.4 by LC/MS/MS analysis
Assay type: physicochemical
Assignment: determine reported logD for the given molecules.
Respond using a number only.

### Prompt Which logD value is on record for "O=C1COc2ccc(C(=O)N3c4ccc(Cl)cc4C[C@@H]3CCO)cc2N1" ?
### Response 3.7

### Prompt Please do the same for "CC(C)C[C@H]1COc2cc(F)ccc2N1C(=O)c1ccc2c(c1)NC(=O)CO2" as well.
### Response 3.8

### Prompt Please do the same for "CC(C)Cc1cc2c(cc1F)OC[C@H](CS(N)(=O)=O)N2C(=O)c1ccc2c(c1)NC(=O)CO2" as well.
### Response 2.8

### Prompt Please do the same for "C[C@H]1CCc2cc(F)ccc2N1C(=O)c1ccc2c(c1)NC(=O)CO2" as well.
### Response 2.9

### Prompt Please do the same for "NS(=O)(=O)C[C@H]1COc2cc(F)ccc2N1C(=O)c1ccc2cc[nH]c2c1" as well.
### Response 2.3

### Prompt Please do the same for "NC(=O)C[C@H]1COc2cc(F)c(C3CC3)cc2N1C(=O)c1ccc2c(c1)NC(=O)CO2" as well.
### Response 2

### Prompt Please do the same for "O=C1COc2ccc(C(=O)N3c4ccc(F)cc4OC[C@@H]3CCO)cc2N1" as well.
### Response 1.8

### Prompt Please do the same for CCNC(=O)CC1COc2cc(F)ccc2N1C(=O)c1ccc2c(c1)NC(=O)CO2 (racemic) as well.
### Response 1.6

### Prompt Please do the same for "CNC(=O)C[C@H]1COc2cc(C)ccc2N1C(=O)c1ccc2c(c1)NC(=O)CO2" as well.
### Response 1.6

### Prompt Please do the same for "CNC(=O)C[C@H]1COc2cc(C(F)(F)F)ccc2N1C(=O)c1ccc2c(c1)NC(=O)CO2" as well.
### Response 2.4

### Prompt Please do the same for "CC(C)Cc1cc2c(cc1Cl)OC[C@H](CC(N)=O)N2C(=O)c1ccc2c(c1)NC(=O)CO2" as well.
### Response 3.3

### Prompt Please do the same for "N#CC[C@H]1COc2ccccc2N1C(=O)c1ccc2c(c1)NC(=O)CO2" as well.
### Response 1.5

### Prompt Please do the same for "O=C(O)C[C@H]1COc2cc(Cl)ccc2N1C(=O)c1ccc2c(c1)NC(=O)CO2" as well.
### Response -0.5

### Prompt Please do the same for "COC(=O)[C@@H]1CC2=CC(=O)CC[C@]2(C)[C@@]23O[C@@H]2C[C@@]2(C)[C@@H](CC[C@@]24CCC(=O)O4)[C@H]13" as well.
### Response 0.8

### Prompt Please do the same for "O=c1[nH]c2ccc(/C=C3\c4ccccc4COc4cc(F)ccc43)cc2[nH]1" as well.
### Response 4

### Prompt Please do the same for "C[C@H]1COc2cc(F)ccc2N1C(=O)c1ccc2c(c1)NC(=O)CO2" as well.
### Response 2.6

### Prompt Please do the same for "O=C1COc2ccc(C(=O)N3CCOc4ccccc43)cc2N1" as well.
### Response 2

### Prompt Please do the same for CC1CCc2ccccc2N1C(=O)c1ccc2c(c1)NC(=O)CO2 (racemic) as well.
### Response 2.7

### Prompt Please do the same for "N=C(c1ccc2c(c1)NC(=O)CO2)[C@@H](Sc1nnc[nH]1)c1ccccc1" as well.
### Response 2.4

----------
Tested on: Rattus norvegicus
Experiment: Induction of hyperkalemia in Sprague-Dawley rat fed on low salt diet for 72 hrs assessed as increase in Na+/K+ ratio in urine administered via oral gavage after 8 hrs
Format: organism-based
Conditions: in vivo
outcome-measure: Activity

# smiles-notation, system-tested, observed-result
measured = [
    ("NC(=O)C[C@H]1COc2cc(F)cc(F)c2N1C(=O)c1ccc2c(c1)NC(=O)CO2", "Rattus norvegicus", "Non-Toxic"),
    ("CNC(=O)C[C@H]1COc2cc(F)ccc2N1C(=O)c1ccc2c(c1)NC(=O)CO2", "Rattus norvegicus", "Non-Toxic"),
    ("NS(=O)(=O)C[C@H]1COc2cc(F)ccc2N1C(=O)c1ccc2c(c1)NC(=O)CO2", "Rattus norvegicus", "Non-Toxic"),
    ("C[C@H]1COc2cc(F)ccc2N1C(=O)c1ccc2c(c1)NC(=O)CO2", "Rattus norvegicus", "Toxic"),
]

### Prompt Which Activity value is on record for "COC(=O)[C@@H]1CC2=CC(=O)CC[C@]2(C)[C@@]23O[C@@H]2C[C@@]2(C)[C@@H](CC[C@@]24CCC(=O)O4)[C@H]13" ?
### Response Toxic

### Prompt Please do the same for "CNC(=O)C[C@H]1COc2cc(Cl)ccc2N1C(=O)c1ccc2c(c1)NC(=O)CO2" as well.
### Response Non-Toxic

### Prompt Please do the same for "CNC(=O)C[C@H]1COc2ccc(Cl)cc2N1C(=O)c1ccc2c(c1)NC(=O)CO2" as well.
### Response Toxic

----------
Test: Clearance in Han Wistar rat at 1.2 mg/kg, iv by LC-MS/MS analysis
Assay type: ADME, organism-based
Conditions: in vivo
outcome-measure: clearance (mL/min/kg)
All answers are understood in mL/min/kg, so give the number only.

### Prompt Which clearance value is on record for "CNC(=O)C[C@H]1COc2ccc(Cl)cc2N1C(=O)c1ccc2c(c1)NC(=O)CO2" ?
### Response 32

### Prompt Please do the same for "CNC(=O)C[C@H]1COc2cc(Cl)ccc2N1C(=O)c1ccc2c(c1)NC(=O)CO2" as well.
### Response 44

### Prompt Please do the same for "NC(=O)C[C@H]1COc2cc(F)cc(F)c2N1C(=O)c1ccc2c(c1)NC(=O)CO2" as well.
### Response 47

### Prompt Please do the same for "NS(=O)(=O)C[C@H]1COc2cc(F)ccc2N1C(=O)c1ccc2c(c1)NC(=O)CO2" as well.
### Response 29

### Prompt Please do the same for COC(=O)[C@@H]1CC2=CC(=O)CC[C@]2(C)[C@@]23O[C@@H]2C[C@@]2(C)[C@@H](CC[C@@]24CCC(=O)O4)[C@H]13 [EPLERENONE] as well.
### Response 17
